Target: RPS10 (Homo sapiens)
Construct: made in house; host or cells: E. coli BL-21
Type: binding
Settings: 1Ai conc. 0.5 uM
Overview of reported RPS10 fluorescence ratio to control across a group of molecules:
Could you respond with only the numeric value?

Example results:
1) CN(C)CC1CCn2cc(c3ccccc32)C2=C(C(=O)NC2=O)c2cn(c3ccccc23)CCO1 (centres unmarked) = 1.048
2) COc1cccc(Nc2nc(-c3ccc(NC(C)=O)cc3)c(C)s2)c1 = 0.6885
3) Cc1ccc(C(=O)c2cc(O)c(O)c([N+](=O)[O-])c2)cc1 = 1.045
4) CN1CCN(S(=O)(=O)c2ccc(N3Cc4cc5c(cc4C4(CCCC4)C3)OCCO5)nc2)CC1 = 0.8515
5) CCOc1cc(C(=O)Nc2ccc(Cl)c(-c3nc4ccccc4[nH]3)c2)cc(OCC)c1OCC = 1.207
6) Cc1ccc(C)n1-c1cc([N+](=O)[O-])ccc1N1CCN(C(=O)c2ccccc2)CC1 = 0.9583

Q. Consider the molecule shown here: `O=C(CSc1nc(-c2ccccc2)cn1-c1ccccc1)NC(=O)Nc1ccccc1` What is its recorded RPS10 fluorescence ratio to control?
A. 0.5095

Q. Try the molecule CCOC(=O)c1ccsc1NC(=O)CN1C(=O)NC(C)(c2cccc3ccccc23)C1=O (centres unmarked)
A. 0.8226
